tested on: K562; assay: NCI tumour cell line growth inhibition, 48 h
Calls of active or inactive are those of the source. Cut-off read from the data, not from the text of the source: active = GI50 up to about 1.1 µM and inactive = higher.
Reply using exactly one outcome from active, inactive

// known answers, use as guide
- COc1cccc(C2CC23C(=O)NC(=O)NC3=O)c1 (stereo unspecified): inactive
- O=C1/C(=C/c2ccccc2O)N=C(c2ccccc2)N1c1nc2ccccc2s1: inactive
- CC1(C)N=c2c(ncn2N)=C(C(N)=O)N1: inactive
- CC/C(Cl)=N\OC(=O)Nc1ccccc1OC(F)(F)F: inactive
- O=c1c(Cc2ccc(Cl)cc2)nnc2sc(-c3ccc([N+](=O)[O-])cc3)nn12: inactive

Task: Answer briefly: the call reported for O=C(CN1CCOCC1)c1ccc2[nH]c(=O)oc2c1 in this assay.
Result: inactive

Task: Field: outcome | Entry: NNC(=S)N/N=C(/C(=O)Nc1ccc([N+](=O)[O-])cc1)c1nc2ccc([N+](=O)[O-])cc2nc1O
Result: inactive

Task: # outcome recorded in this test, key = N#Cc1cc2c(cc1C#N)/C(=N\c1cccc(N)n1)N/C2=N\c1cccc(N)n1
Result: inactive

Task: Record lookup: outcome of this test for CSCSSC ?
Result: inactive

---

tested on: A549; assay: NCI tumour cell line growth inhibition, 48 h
Active and inactive are the calls of the source. Cut-off read from the data, not from the text of the source: active = GI50 up to about 1.1 µM and inactive = higher.
The categories you may choose from are Yes = active, No = inactive

Observe how each entry below is paired with its result.
• COc1cccc2c1C(=O)c1c(O)c3c(c(O)c1C2=O)C[C@@](O)(/C(C)=N/NC(=O)c1ccccc1)C[C@@H]3OC1CC(N)C(O)C(C)O1 (stereo not given in full) = Yes
• COc1ccc(/C=C/c2cc(OC)c(OC)c(OC)c2)cc1O[Si](C)(C)C(C)(C)C = No
• Brc1ccc(/C(N=N/C(=N\Sc2ccccc2)c2ccc(Br)cc2)=N/Sc2ccccc2)cc1 = No
• c1ccc2c(c1)cc1n2CC2CN=NC12 (stereo not given) = No
• COc1cc2ccnc(-c3n[nH]c4cc(OC)c(OC)cc34)c2cc1OC = No

Task: Short answer needed: outcome of this test for CCCCCCCCCCCCCC[S+](C)C ?
Result: No

Task: Dear colleague, could you share the recorded outcome for CCOC(=O)/C(=N/Nc1ccc(Cl)cc1)N1C(=S)N(C)N=C(C)C=C1S when you have a moment?
Result: No

Task: // outcome(item) with item = CC(C)=Cc1cc(CCC/C(C)=C/Cc2c(O)cc(C)c(C(=O)O)c2O)co1
Result: No

Task: Record request — test call for Cc1cc(S(=O)(=O)N/C(=N/N)NCCc2ccccc2)c(S)cc1Cl
Result: No

Task: What is the recorded call for this molecule in the test? COc1ccc(Oc2cccc(/C=C3/C(=O)Nc4ccccc43)c2)cc1
Result: No

---

system: DLD-1; assay: NCI tumour cell line growth inhibition, 48 h
Calls of active or inactive are those of the source. No stated cut-off is given here; in the data, active = GI50 up to about 1.1 µM and inactive = higher.
assayMetric: GI50

Please review the entries below; each comes with its answer.
• N#C/N=C(/N)NCN/C(N)=N\C#N = 81.5 µM (inactive)
• Cc1ccc(NC(=O)CCC(=O)C2Cc3ccccc3C2=O)cc1C (stereo not given) = > 100 µM (inactive)
• O=C1NC2(O)c3ccccc3C(=O)C2(O)N1c1ccccc1 (stereo not given) = > 100 µM (inactive)
• C/C(CC(=O)Nc1ccc([N+](=O)[O-])cc1)=N/N=C(N)N = > 100 µM (inactive)
• CCSC(=O)C1(C)OC2CCCCC2C1=O (stereo not given) = > 100 µM (inactive)

Task: Given O=C(Nc1cccc(C(F)(F)F)c1)C(=O)C(C(=O)c1ccc(Cl)c(Cl)c1)C1OC(=O)c2ccccc21 (stereo not given) , state its recorded GI50.
Result: 41.9 µM (inactive)

---

system: 786-0; assay: NCI tumour cell line growth inhibition, 48 h
Activity calls are given as the source filed them. No stated cut-off is given here; in the data, active = GI50 up to about 1.1 µM and inactive = higher.
assayMetric: GI50

Sample records with GI50:
- Cc1sc2nc(N(C)C)oc(=O)c2c1C: > 100 µM (inactive)
- N#CC(NCc1cccc(CNC(C#N)c2ccccc2)c1)c1ccccc1 (configuration not stated): 35.6 µM (inactive)
- Cc1ccc(-c2c(C#N)c(-c3ccc([N+](=O)[O-])cc3)c(C#N)c(=O)n2NS(=O)(=O)c2ccccc2)cc1: 45.3 µM (inactive)

Task: What value of GI50 has been recorded for this entry: CC1=CCC[C@@H]2[C@@](C)(Cc3cc(O)ccc3O)[C@H](C)CC[C@@]12C
Result: 6.49 µM (inactive)

Task: Reported GI50, compound COc1ccc2c(c1)CCc1cc(OC)ccc1/[N+]([O-])=[N+]\2[O-] : ____
Result: 6.27 µM (inactive)

Task: Tell me the measured GI50 of C=C1C(=O)OC2CC(C)C(C(O)CC(C)O)=CCC12 (configuration not stated) , please.
Result: 13.7 µM (inactive)

Task: Need GI50, item c1ccc(C[n+]2ccc3c(c2)CCCC3)cc1
Result: > 100 µM (inactive)

Task: What value of GI50 has been recorded for this entry: CCN(CC)c1ccc(/C=C/C=C2C(=O)NC(=S)NC2=O)cc1
Result: 27.7 µM (inactive)

---

system: SW-620; experiment: NCI tumour cell line growth inhibition, 48 h
Activity calls are given as the source filed them. Cut-off read from the data, not from the text of the source: active = GI50 up to about 1.1 µM and inactive = higher.
assayMetric: GI50

Worked examples follow.
- O=Cc1c(C(=O)O)[nH]c(=O)[nH]c1=O: > 100 µM (inactive)
- C/C=C(C)/C=C/CC(C)CCC=C(C)C (configuration not stated): > 100 µM (inactive)

Task: Item under review: N#CCCN(c1ccc(-c2nnc(NC(=O)CNNC(=O)CC(=O)Nc3ccccc3)s2)cc1)S(=O)(=O)c1ccccc1 . Reported GI50?
Result: > 100 µM (inactive)

Task: Suppose we examine the compound COC1=CC(=O)c2ccccc2C1(C)C1=NC(C)(C)CO1 (configuration not stated) ; what GI50 value has been reported?
Result: > 100 µM (inactive)

Task: Entry under review: Nc1ccc2[nH]c3c(-c4ccccc4)nccc3c2c1 . Reported GI50?
Result: 65.8 µM (inactive)

Task: Entry under review: C=CCCC1CCCNC1=S (configuration not stated) . Reported GI50?
Result: > 100 µM (inactive)

Task: What does the record list as GI50 for CCCCN1/C(=N/Nc2n[nH]c(=O)c3ccccc23)SCC1c1ccc(Cl)cc1 (configuration not stated) ?
Result: 19.8 µM (inactive)

---

test system: SK-OV-3; assay: NCI tumour cell line growth inhibition, 48 h
Activity calls are given as the source filed them. No stated cut-off is given here; in the data, active = GI50 up to about 1.1 µM and inactive = higher.
In this exercise, the only acceptable responses are active, inactive

- CCCCN1C(=O)C[C@H]2[C@@H]3CCc4cc(OCCN5CCCC5)ccc4[C@H]3CC[C@]2(C)C1=O: inactive
- COc1ccc(Cc2coc3ccccc3c2=O)cc1OC: inactive
- N#Cc1c(O)c(/N=N/c2ccccc2F)c(=O)n2c1[nH]c1ccccc12: inactive

Task: Query: recorded result category for CCOC(=O)c1ccc(N[C@@H]2c3cc4c(cc3C(c3cc(OC)c(O)c(OC)c3)[C@H]3C(=O)OCC32)OCO4)cc1O (stereo not given in full) in this test
Result: active

Task: Query: recorded result category for COc1ccc2c(c1O)C13CCN(C)C(C2)C1CCC1(C3)OCCO1 (stereo not given) in this test
Result: inactive

---

test system: COLO 205; assay: NCI tumour cell line growth inhibition, 48 h
Calls of active or inactive are those of the source. Cut-off read from the data, not from the text of the source: active = GI50 up to about 1.1 µM and inactive = higher.
Returns: one label drawn from active, inactive

Example entries and their recorded answers appear below.
* COc1ccc(C23C(=O)c4ccccc4N2O[C@H]2C(=O)N(c4ccccc4)C(=O)[C@H]23)cc1 (stereo not given in full) | inactive
* COc1ccc2c(c1)CCc1cc(OC)ccc1/[N+]([O-])=[N+]\2[O-] | inactive

Task: # outcome recorded in this test, key = C=C1C(=O)OC2CC(C)C(C(O)CC(C)O)=CCC12 (stereo not given)
Result: inactive

Task: Per the records of this test, what outcome belongs to CC1=C(C(=O)Nc2ccccc2)C(c2ccc(Cl)c(Cl)c2)C(C(=O)Nc2ccccc2)=C(C)N1 ?
Result: inactive

---

tested on: UACC-62; assay: NCI tumour cell line growth inhibition, 48 h
The source made the active and inactive calls. No stated cut-off is given here; in the data, active = GI50 up to about 1.1 µM and inactive = higher.
Thanks in advance; please answer with one of these: active, inactive

• COc1ccc(C2CC(c3c(O)ccc4ccccc34)=NN2C(C)=O)cc1OC (centres undefined) = inactive
• CCNC12CCC(C1)C(C)(C)C2=O (centres undefined) = inactive
• COc1ccc2c3c([nH]c2c1CC=C(C)C)C(=O)C=C(C)C3=O = inactive
• COc1ccc(Cc2coc3ccccc3c2=O)cc1OC = inactive
• CC1C(O)C2(Oc3cc4c(c5c3[C@@H](CC5O)[C@H]2C)CCC2Cc3nc5c(nc3C[C@@]42C)CC2CCC3C4=C[C@H]6O[C@@]7(O[C@@](C)(CO)C[C@@H]7O)C(C)[C@@]6(O)[C@]4(C)[C@@H](O)CC3[C@]2(C)C5)OC1(C)C (some centres undefined) = active
• CCc1cc2c(cc1O)CC[C@@H]1[C@@H]2CC[C@]2(C)[C@@H](O)CC[C@@H]12 = inactive
• CCNC(=O)NNc1ncnc2c1c(-c1ccc(Cl)cc1)cn2-c1ccc(C)cc1 = inactive
• c1cncc(CNc2ncn[nH]2)c1 = inactive

Task: For COc1cc(/C=C2\CCC(C)c3c2nc(N)c(C#N)c3-c2cc(OC)c(OC)c(OC)c2)cc(OC)c1OC (centres undefined) , what call appears in the results of this test?
Result: inactive
